List of koff values.
target: T1, human transferrin receptor (recombinant, for surface plasmon resonance) (human, UniProt P02786 89-760); experiment: SPR
T1 construct: also called huTfR; human transferrin receptor-biotinylated
T1 sequence (P02786 89-760 limits assumed): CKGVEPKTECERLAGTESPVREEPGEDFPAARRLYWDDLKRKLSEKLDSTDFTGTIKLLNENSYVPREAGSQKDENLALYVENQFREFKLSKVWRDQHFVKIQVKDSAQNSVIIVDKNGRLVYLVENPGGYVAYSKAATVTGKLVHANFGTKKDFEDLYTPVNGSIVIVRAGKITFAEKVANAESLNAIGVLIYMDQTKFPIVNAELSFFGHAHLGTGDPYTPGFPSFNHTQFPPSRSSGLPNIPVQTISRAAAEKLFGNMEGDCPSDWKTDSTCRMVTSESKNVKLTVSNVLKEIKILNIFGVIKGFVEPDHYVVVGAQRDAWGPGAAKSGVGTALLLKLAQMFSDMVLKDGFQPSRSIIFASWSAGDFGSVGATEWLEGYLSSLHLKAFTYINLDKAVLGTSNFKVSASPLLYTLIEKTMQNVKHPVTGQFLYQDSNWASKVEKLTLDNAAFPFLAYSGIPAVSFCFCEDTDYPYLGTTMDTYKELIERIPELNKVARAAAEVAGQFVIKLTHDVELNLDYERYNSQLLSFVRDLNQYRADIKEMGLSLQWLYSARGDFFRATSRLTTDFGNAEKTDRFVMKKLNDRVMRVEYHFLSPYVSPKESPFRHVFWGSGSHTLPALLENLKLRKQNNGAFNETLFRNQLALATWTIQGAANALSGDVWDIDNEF

{"binder": "4/94 SEQ ID NO 197 / SEQ ID NO 208 (antibody, V domains shown) VH: QVQLVQSGAEVKKPGSSVKVSCKASGFNIKDTYIHWVIQAPGQGLEWMGRIDPANGDTKSDPKFQGRVTITADESTSTAYMELSSLRSEDTAVYYCVRDYLYPYYFDFWGQGTTVTVSS VL: EIVLTQSPGTLSLSPGERATLSCRASESVDTYVSWYQQKPGQAPRLLIYGASNRYTGVPDRFSGSGSGTDFTLTISRLEPEDFADYYCGQTYNYPLTFGQGTKLEI", "koff, s⁻¹": 0.000683}
{"binder": "4/94 SEQ ID NO 200 / SEQ ID NO 208 (antibody, V domains shown) VH: EVQLVESGGGLVQPGGSLRLSCAASGFNIKDTYIHWVIQAPGKGLEWVGRIDPANGDTKSDPSVQVRATISADTSKNTAYLQMNSLRAEDTAVYYCVRDYLYPYYFDFWGQGTTVTVSS VL: EIVLTQSPGTLSLSPGERATLSCRASESVDTYVSWYQQKPGQAPRLLIYGASNRYTGVPDRFSGSGSGTDFTLTISRLEPEDFADYYCGQTYNYPLTFGQGTKLEI", "koff, s⁻¹": 0.000306}
{"binder": "4/94 SEQ ID NO 198 / SEQ ID NO 208 (antibody, V domains shown) VH: QVQLVQSGAEVKKPGSSVKVSCKASGFNIKDTYIHWVIQRPGQGLEWMGRIDPANGDTKSDPKFQGRVTITADESTSTAYMELSSLRSEDTAVYYCVRDYLYPYYFDFWGQGTTVTVSS VL: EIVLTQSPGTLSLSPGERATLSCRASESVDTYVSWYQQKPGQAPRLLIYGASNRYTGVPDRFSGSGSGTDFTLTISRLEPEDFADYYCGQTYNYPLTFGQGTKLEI", "koff, s⁻¹": 0.000717}
